The entries below are paired with their reported growth.
Test system: OVCAR-5 ovarian
Assay: NCI-60 one-dose screen, 48 h (100 = growth as untreated, 0 = no growth, -100 = all killed)
Conditions: 10 µM unless noted
Protocol: Growth inhibition of the OVCAR-5 human tumor cell line is measured as a screen for anti-cancer activity. Cells are grown in 96 well plates and exposed to the test compound for 48 hours. Compounds are tested at a single concentration, which is 10^-5 M for most compounds. The reported endpoint is percent growth (GI% or GIPRCNT), where numbers from 0 - 100% represent growth inhibition, and numbers from -100% - 0 represent cell death. For example, a value of 40 represents 60% growth inhibition. […]
Compounds without any hit were thinned out: in the full panel of roughly 83,000, 20% have a hit.
Just the number in %, nothing appended.

The cases that follow already have their growth on record.
c1cc2c(c3c1CCNC3)OCO2; 108
CNC(=O)Oc1ccc(N(C)C)cc1C(C)C; 99.8
CC[C@H](C)[C@H](NC(=O)c1ccccn1)C(=O)N(C)[C@H](C[C@@H](OC(C)=O)c1nc(C(=O)N[C@@H](Cc2ccccc2)C[C@H](C)C(=O)OC)cs1)C(C)C; 49.6
CC[C@H](C)[C@H](NC(=O)[C@H]1CCCCN1C)C(=O)N(C)[C@H](C[C@@H](OC(C)=O)c1cccc(C(=O)N[C@@H](Cc2ccccc2)C[C@H](C)C(=O)O)n1)C(C)C; 52
CCOP(=O)(Cc1ccc(C#N)cc1)OCC; 106
CC(C)CCC1(CCCl)C(=O)NC(=O)NC1=O; 101
COc1cc([C@@H]2c3cc4c(cc3[C@H](OC(C)=O)[C@H]3COC(=O)[C@@H]23)OCO4)cc(OC)c1OC; 26.4
Cc1ccc(N2COOC3(OOC2)C2CC4CC(C2)CC3C4)cc1; 101

--- query ---
Param item = C[C@]12CCc3sc(NCCc4ccccc4)nc3C1=CC[C@@H]1[C@@H]2CC[C@]2(C)C(=O)CC[C@@H]12 ; retrieve measured growth.
100

---

Test system: NCI-H460 lung
Assay: NCI-60 one-dose screen, 48 h
Details: 10 µM unless noted
This is part of a sample that, as a whole, favours compounds with a hit. Of some 83,000 tested, about 20% had one in any assay. Calls of active or inactive are those of the source. How the source made its calls: active means growth percent below 10; inactive means the rest.
Write down the outcome that applies. Available outcomes: Yes (active), No (inactive)

Below, 4 compounds whose answers are already recorded.
COC1CC2c3ccccc3C1C(C)=[N+]2C (stereo not given); No
ClC1=C(Cl)C(Cl)(C2(Cl)C(Cl)=C(Cl)C(Cl)=C2Cl)C(Cl)=C1Cl; No
COc1cc2ncnc(Nc3ccc(F)c(Cl)c3)c2cc1OCC(=O)N1CCN(C)CC1; No
C[C@]12CC[C@@H]3c4ccc(Oc5nc(N6CC6)nc(N6CC6)n5)cc4CC[C@H]3[C@@H]1CCC2=O; Yes

Here is the next item to consider.
I would be grateful if you could indicate the recorded call for CC1=C(O)[C@@](C)(CCCCC[C@H](C)CCCCc2ccc(O)cc2)OOC1=O .
No

---

Tested on: SW-620 colon
Experiment: NCI-60 one-dose screen, 48 h (100 = growth as untreated, 0 = no growth, -100 = all killed)
Settings: 10 µM unless noted
This is part of a sample that, as a whole, favours compounds with a hit. Of some 83,000 tested, about 20% had one in any assay. Active and inactive are the calls of the source. Rule for the calls: active = growth percent below 10; inactive = the rest.
quantity.name: growth

Some compounds with known growth results, for comparison:
CC(=O)O[C@H](C[C@H](C(C)C)N(C)C(=O)[C@@H](NC(=O)[C@H]1CCCCN1C)C(C)C)c1nc(C(=O)NC2CCC(C(=O)O)CC2)cs1 (some centres undefined); 32.6% (inactive)
CC[C@H](C)[C@H](NC(=O)[C@H]1CCCCN1C)C(=O)N(C)[C@H](C[C@@H](OC(C)=O)c1cccc(C(=O)N[C@@H](Cc2ccccc2)C[C@H](C)C(=O)O)n1)C(C)C; 28.3% (inactive)
CC1(C)C(C(=O)c2cn(CCCCF)c3ccccc23)C1(C)C; 99.1% (inactive)

Query for SW-620 colon: what growth does the record show for COC(=O)[C@@H](C)C[C@H](Cc1ccc(F)cc1)NC(=O)c1csc([C@@H](C[C@H](C(C)C)N(C)C(=O)[C@@H](NC(=O)[C@H]2CCCCN2C)C2CC2)OC(C)=O)n1 ?
27.2% (inactive)
